test system: CAKI-1 renal; test: NCI tumour cell line growth inhibition, 48 h
Reported TGI values are given for each entry in this list.

# count of solved cases: 10
Look up and state reported TGI for O=c1ncc(-c2ccc(C(F)(F)F)cc2)c(NC2CCCCCC2)[nH]1
48.4 µM

Give the reported value of TGI for this record: COC1Cc2c(C)c(OC(C)=O)c3cccnc3c2O1 (stereo not given)
> 100 µM

Supply TGI value. Item: c1ccc(COCC23CCN(Cc4ccccc4)C(CC(OCc4ccccc4)C2)S3)cc1 (stereo not given)
> 100 µM

Output TGI of COc1cc(-c2c[nH]c3ccccc23)nc(-c2c[nH]c3ccccc23)n1
20.7 µM

Give me measured TGI, please, for this molecule: CCCSc1cc(Cl)c(C)cc1S(=O)(=O)n1cc[nH]c1=O
> 100 µM

Identify the reported TGI for the following entry. O=[N+]([O-])C(/C(Cl)=C(/Cl)N1CCCCC1)=C1\NCCO1
> 100 µM

Look up and report measured TGI for this entry: CCOC(=O)CSc1nc(-c2ccc(OC)cc2)c(C#N)c(=O)[nH]1
> 100 µM

Entry NCC(=O)C(O)C(O)C(O)CO (stereo not given) needs its TGI filled in; supply it.
> 100 µM

For the molecule Cc1nc(NC(=S)NC(=O)c2ccc(Cl)c(Cl)c2)sc1C(=O)/C=C/c1ccccc1[N+](=O)[O-] , report TGI.
47.3 µM

Using known records, supply TGI for COC(=O)C1=CC(O)CCC1c1ccc(OC)cc1 (stereo not given)
> 100 µM

New cases:
Quickly give me recorded TGI for Cc1ccc(SCC(OCn2cnc3c(N)ncnc32)[C@H](C)F)cc1 (stereo not given in full)
> 100 µM

Provide only the value of recorded TGI for COc1ccccc1/C=C/C(=O)c1sc(-c2cccnc2)nc1C
> 100 µM

State, in one line, measured TGI of CNC(=O)Nc1cc2c3c(c1)CCCN3CCC2
> 10 µM

Return the recorded TGI value; entry: CC(=O)OCC1OC(n2c(C)c(N=Nc3ccc(C)cc3)c(C)c(C#N)c2=S)C(OC(C)=O)C(OC(C)=O)C1OC(C)=O (stereo not given)
> 100 µM

Note down TGI recorded for O=c1oc2ccc(Cl)cc2c(=O)n1-c1ccc(Cl)cc1F
1.67 µM

Provide one value: measured TGI of Cc1cc(Cl)ccc1Nc1sc(C(=O)c2cc3cc(Cl)ccc3o2)c(N)c1C#N
> 100 µM

====

test system: SR leukemia; assay: NCI tumour cell line growth inhibition, 48 h
// values below are reported TGI

Some compounds with recorded TGI:
Fill in: TGI on SR leukemia, entry N#CN=Nc1cc(Cl)c(N=NC#N)cc1Cl
> 100 µM

Answer with TGI of O=C(NO)c1cccc(OCc2ccc(Br)cc2)c1 measured for SR leukemia.
37.3 µM

Enter recorded TGI with SR leukemia for CCN(Cc1ccc(F)cc1)c1ccc(CO)c(Cl)c1 here.
51.5 µM

Provide the reported TGI (system: SR leukemia) for CC(C)(Cl)CCC1=C(Cl)C(=O)c2ccccc2C1=O
5.69 µM

Output reported TGI of the compound CC(=O)C1(c2ccccc2)CCN(Cn2sc3nc(C)cc(C)c3c2=O)CC1 on SR leukemia.
> 100 µM

Print SR leukemia TGI for CCOC(=O)Cn1c(=O)c2nc(SC)sc2n(-c2ccc(C)cc2)c1=S .
> 100 µM

---
Consider the compound CCOC(=O)CSc1nc(-c2ccc(OC)cc2)c(C#N)c(=O)[nH]1 tested on SR leukemia; state its TGI.
> 100 µM
